Here the recorded viability is given for each entry.
- experiment.description: primary screen for suppressors of beta-catenin knockout HCT116 cell growth, colon tumor, human (AID 818);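 also: 0% = Hyamine 1622 control at 20 µM and 100% = untreated cell control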
- condition.info: CellTiter-Glo, 60 h, at 10 µM, hits give low values
The whole screen tested about 140,000 compounds, of which about 2,100 (1.5%) were called active. The list comes from a sample in which actives are over-represented; it also holds close analogues and randomly drawn compounds.
Quick reminder: number only, in %, skip the unit.

compound	value.measured
CCOC(=O)C1=C(C)N=c2s/c(=C\C(=O)OC)c(=O)n2C1c1ccc(OC)cc1 (stereo unspecified)	98.8
O=S(=O)(NCC1CCCO1)c1cnc(Cl)c(Cl)c1 (stereo unspecified)	69.3
CC(C)(C)SCCNC(=O)c1cccc([N+](=O)[O-])c1	97.8
COc1ccc(C2=NN(C(=O)c3cccnc3)C(c3ccccc3)C2)cc1 (stereo unspecified)	100
CC(C[N+](C)(C)C)OC(N)=O (stereo unspecified)	1.28
O=C(NNc1ccccc1Cl)C(O)(c1cccc(C(F)(F)F)c1)c1cccc(C(F)(F)F)c1	3.21
O=C(NN1C(=O)C2C3C=CC(C3)C2C1=O)c1ccco1 (stereo unspecified)	93.7
COc1ccc2nc(Nc3nc4cc5c(cc4s3)OCCO5)sc2c1	90.5
NS(=O)(=O)c1ccc(NC(=O)COC(=O)C2(c3ccc(F)cc3)CCCC2)cc1	82.7
Cc1cc(Nc2ccccc2)nc(N)n1	93.5

Notebook: `CC[C@H]1CN2CCc3cc(OC)c(OC)cc3[C@@H]2C[C@@H]1C[C@H]1NCCc2cc(OC)c(OC)cc21` , viability read as 4.12

Notebook: `Cc1ccc(/C=N/NC(=O)COc2ccccc2-c2ccccc2)cc1` , viability read as 13.9

----------
- experiment.description: primary screen for suppressors of beta-catenin knockout HCT116 cell growth, colon tumor, human (AID 818);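 also: 0% = Hyamine 1622 control at 20 µM and 100% = untreated cell control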
- condition.info: CellTiter-Glo, 60 h, at 10 µM
In all, about 140,000 compounds went through this assay and about 2,100 (1.5%) were called active.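 The calls were made as follows: active = viability at or under a set limit, the compound median less 4 SD (cut at about 6% in these data); inactive = the rest.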 The entries come from a sample that favours actives as a whole.
Please answer using one outcome listed in Yes = active, No = inactive

Consider the following illustrative entries.
compound	class
COc1ccccc1N1CCN(C(=O)CN(Cc2ccc(Cl)cc2)S(C)(=O)=O)CC1	No
CCOC(=O)c1cc2c(=O)n3ccccc3nc2n(CC(C)C)c1=NC(=O)c1c(-c2c(F)cccc2Cl)noc1C	No

Hey, what did the test say about CC(=O)NC(C)c1nc2ccccc2n1Cc1ccccc1F (centres undefined) ?
No

Hey, what did the test say about `Cc1ccc(-c2nc3c(cnn3-c3ccccc3)c(=O)o2)cc1` ?
No

Hey, what did the test say about CCOC(=O)C1=C(C)NC(=S)NC1c1cccs1 (centres undefined) ?
No

Hey, what did the test say about `Cc1cc(C)nc(NC(=O)c2cccc([N+](=O)[O-])c2)c1` ?
No

Hey, what did the test say about `O=C(/C=C/c1ccc(Cl)cc1Cl)c1cccnc1` ?
Yes

Hey, what did the test say about `COc1ccc(C)cc1Nc1nc(-c2c(C)[nH]c3ccccc23)cs1` ?
No

Hey, what did the test say about `S=C(NCc1ccc(Cl)cc1)NC1CCCCC1` ?
No

Hey, what did the test say about `COc1ccc(-n2c(C)nc3c(cnn3-c3ccccc3)c2=O)cc1` ?
No

Hey, what did the test say about CSc1nc(C)cc(SC(C(C)=O)C(=O)Nc2ccccc2)n1 (centres undefined) ?
No

Hey, what did the test say about `CCCCOc1ccc(C(=O)NN2CCN(C)CC2)cc1` ?
No

Hey, what did the test say about `Cc1ccc(C(=O)NC(=S)NCCN2CCOCC2)cc1` ?
No

----------
- experiment.description: primary screen for suppressors of beta-catenin knockout HCT116 cell growth, colon tumor, human (AID 818);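 also: 0% = Hyamine 1622 control at 20 µM and 100% = untreated cell control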
- condition.info: CellTiter-Glo, 60 h, at 10 µM, hits give low values
Screen size: about 140,000 compounds; about 2,100 (1.5%) were called active. The full list was thinned out, with actives kept by preference.
measured.metric: viability (%)
Quick reminder: number only, in %, skip the unit.

Previously resolved entries follow.
molecule	viability [%]
CCOC(=O)c1c(NC(=O)C2(C)Cc3ccccc3C(=O)O2)sc2c1CCCC2 (centres undefined)	79.4
COc1cc(NS(=O)(=O)c2ccccc2)ccc1-n1nc(C)cc1C	101
Cc1cc(NC(=O)/C=C/C(=O)N(c2ccccc2C)C(C(=O)NC2CCCC2)c2ccc(F)cc2)no1 (centres undefined)	5.76
CCN1/C(=C/c2ccc3ccc(C)cc3[n+]2CC)Sc2ccccc21	2.41
Cc1ccc(C(=O)N/C(=C/c2cccnc2)C(=O)O)cc1	87.7

Notebook: `Cc1cc(Nc2ccccc2)n(C(=O)c2ccc(N)cc2)n1` , viability read as 85.7

Notebook: CCCC(NC(=O)c1ccco1)c1nc2ccccc2[nH]1 (centres undefined) , viability read as 101

Notebook: `CCCCC(=O)NCc1ccc(F)cc1` , viability read as 93.4

Notebook: `CCOc1ccc2nc(Nc3nc4ccc(NC(C)=O)cc4s3)sc2c1` , viability read as 74.6

Notebook: `C[C@@H](O)c1nc2ccccc2n1N` , viability read as 96

Notebook: Fc1ccccc1/C=C1\CCCC2=C1Nc1ncnn1C2c1ccccc1F (centres undefined) , viability read as 4.91

----------
Here the recorded viability is given for each entry.
- experiment.description: primary screen for suppressors of beta-catenin knockout HCT116 cell growth, colon tumor, human (AID 818);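 also: 0% = Hyamine 1622 control at 20 µM and 100% = untreated cell control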
- condition.info: CellTiter-Glo, 60 h, at 10 µM, hits give low values
Screen size: about 140,000 compounds; about 2,100 (1.5%) were called active. Many of the other results were omitted from the sample, so actives are more common in it than they were.

Previously resolved entries follow.
molecule	viability
COc1ccc(C(=O)OCC(=O)NC(=O)CCSc2ccccc2)cc1	97.4% (inactive)
COC(=O)Cn1c(=NC(=O)c2cc(OC)c(OC)c(OC)c2)sc2cc(OC)ccc21	81.5% (inactive)
Cc1ccc(-c2nn(-c3ccccc3)cc2/C=N/NC(=O)c2ccc3c(c2)OCO3)cc1	36.6% (inactive)
Cc1ccc(/C=N/NC(=O)C2=NNC(c3ccccc3)(c3ccccc3)C2)c(O)c1	4.68% (active)
Cc1ccc(C)c(NC(=O)CCC(=O)NNC(=O)c2cccs2)c1	96.8% (inactive)

Notebook: `CSc1ccc(/C=N/NC(=O)c2cccc(Cl)c2)cc1` , viability read as 84.1% (inactive)

Notebook: `COC(=O)/C(=C1\Oc2ccc(C(C)(C)C)cc2S1)C(F)(F)F` , viability read as 102% (inactive)

Notebook: COc1ccc(-n2c(C)cc(C(=O)CN3C(=O)NC4(CCc5ccccc54)C3=O)c2C)cc1 (stereo unspecified) , viability read as 70.1% (inactive)

Notebook: `Cc1cccc(-n2c(C)cc(/C=N\NC(=O)c3cccs3)c2C)c1` , viability read as 60.6% (inactive)

Notebook: `O=C(/C=C/c1ccc(Cl)cc1Cl)NCc1ccco1` , viability read as 102% (inactive)

----------
- experiment.description: primary screen for suppressors of beta-catenin knockout HCT116 cell growth, colon tumor, human (AID 818);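 also: 0% = Hyamine 1622 control at 20 µM and 100% = untreated cell control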
- condition.info: CellTiter-Glo, 60 h, at 10 µM, hits give low values
Out of some 140,000 compounds screened, about 2,100 (1.5%) were called active. Only a selection was taken, and actives are over-represented in it overall.
Just a reminder that ties go to Not met: only viability strictly below 60% counts as Met.

compound	class
CN(C)CCCn1c(N)c(C#N)c2nc(C#N)c(C#N)nc21	Met
CCCCCC(=O)Nc1ccc(C(=O)N/N=C/c2ccc([N+](=O)[O-])cc2)cc1	Met
COc1ccc2nc(Nc3nc4ccc(NC(C)=O)cc4s3)sc2c1	Met
NC1=NC(=O)S/C1=C\c1ccc(O)cc1	Not met
Nc1ccc(Nc2ccccc2)cc1	Met
COc1ccccc1/C=N\Nc1cc(C)nc(-n2nc(C)cc2C)n1	Met
COc1ccc(OC(C)C(=O)NCCc2nc3ccccc3[nH]2)cc1 (stereo not drawn)	Not met
CCCCCC(=O)NC(=S)NNC(=O)c1ccc([N+](=O)[O-])cc1	Met

Say whether its viability is strictly beneath 60%. Entry: `CCN1CN(Cc2ccccc2)CNC1=S`
Not met

Say whether its viability is strictly beneath 60%. Entry: `Cc1ccc2c(CC(=O)NCc3cccs3)coc2c1`
Not met

Say whether its viability is strictly beneath 60%. Entry: `O=C(CCCN1C(=O)/C(=C/c2ccco2)SC1=S)Nc1ccccc1`
Met

Say whether its viability is strictly beneath 60%. Entry: `O=C(Nc1cccc(F)c1)c1coc(=O)c(Br)c1`
Met

Say whether its viability is strictly beneath 60%. Entry: `O=C(COc1ccc(/C=N/NC(=O)c2ccc(O)cc2)cc1)Nc1ccc([N+](=O)[O-])cc1`
Not met

Say whether its viability is strictly beneath 60%. Entry: `Cc1cc(C)c2nc(SCCC#N)nc(C)c2c1`
Not met

Say whether its viability is strictly beneath 60%. Entry: CCCC1OC23CCCCC2C(C#N)(C#N)C1(C#N)C(=N)O3 (stereo not drawn)
Not met

Say whether its viability is strictly beneath 60%. Entry: `Oc1c(Br)cccc1/C=N/Nc1c(F)c(F)c(F)c(F)c1F`
Met

Say whether its viability is strictly beneath 60%. Entry: `CCCCc1nc(NCc2ccccc2)c(C#N)c2c1CCCC2`
Not met
